All values here come from ChEMBL document CHEMBL5230127.

target: Serine/threonine-protein kinase mTOR (Rattus norvegicus, UniProt P42346)
pIC50: −log10 of the molar value.
QUANTITY NAME: pIC50

                         structure_notation  reported_value
0  COC[C@H]1OC(=O)c2coc3c2[C@@]1(C)C1=C(C3=O)[C@@H]2CCC(=O)[C@@]2(C)C[C@H]1OC(C)=O            6.52
